The origin of these recorded values is the supplement of paper PMC9112550.

# Tested on: Escherichia coli TOP10
# Procedure details: shrunken log2 fold change of peptide-encoding DNA abundance (4.5 h post-induction vs induction); higher = less antimicrobial activity (less host growth inhibition)
# Experimental conditions: time post-induction: 4.5 h; library: site-saturation at positions 5, 18, 19, 20
Use -0.03 as the dividing line for shrunken log2 fold change, with the line itself on the Satisfied side and lower values as Not satisfied.

Worked examples, 3 sequences total:
RRIRERPPRLPRPRPRPEQKPRP = Satisfied
RRIRARPPRLPRPRPRPCVSPRP = Satisfied
RRIRARPPRLPRPRPRPIAIPRP = Satisfied

Does the sequence `RRIRWRPPRLPRPRPRPAEYPRP` have recorded shrunken log2 fold change that is -0.03 or more?
Satisfied

Does the sequence `RRIRMRPPRLPRPRPRPEWHPRP` have recorded shrunken log2 fold change that is -0.03 or more?
Satisfied

Does the sequence `RRIRFRPPRLPRPRPRPGIKPRP` have recorded shrunken log2 fold change that is -0.03 or more?
Not satisfied

Does the sequence `RRIRHRPPRLPRPRPRPFEIPRP` have recorded shrunken log2 fold change that is -0.03 or more?
Not satisfied

Does the sequence `RRIRSRPPRLPRPRPRPYCLPRP` have recorded shrunken log2 fold change that is -0.03 or more?
Not satisfied

Does the sequence `RRIRERPPRLPRPRPRPSKYPRP` have recorded shrunken log2 fold change that is -0.03 or more?
Not satisfied

----------
# Tested on: Escherichia coli TOP10
# Procedure details: shrunken log2 fold change of peptide-encoding DNA abundance (4.5 h post-induction vs induction); higher = less antimicrobial activity (less host growth inhibition)
# Experimental conditions: time post-induction: 4.5 h; library: site-saturation at positions 5, 18, 19, 20
Known shrunken log2 fold change of a selection of sequences

Previously resolved entries follow.
RRIRFRPPRLPRPRPRPSRNPRP = -0.346
RRIRGRPPRLPRPRPRPCWIPRP = -0.0658
RRIRLRPPRLPRPRPRPHDGPRP = 0.0171
RRIRKRPPRLPRPRPRPVTFPRP = -0.126
RRIRLRPPRLPRPRPRPLVDPRP = -0.0956

Fill in: shrunken log2 fold change of `RRIRWRPPRLPRPRPRPYMPPRP` is ___
-0.695

Fill in: shrunken log2 fold change of `RRIRYRPPRLPRPRPRPHKVPRP` is ___
-0.739

Fill in: shrunken log2 fold change of `RRIRERPPRLPRPRPRPFTVPRP` is ___
-0.00987

Fill in: shrunken log2 fold change of `RRIRTRPPRLPRPRPRPIFAPRP` is ___
0.408

Fill in: shrunken log2 fold change of `RRIRQRPPRLPRPRPRPKQCPRP` is ___
-0.288

Fill in: shrunken log2 fold change of `RRIRDRPPRLPRPRPRPELSPRP` is ___
1.55

Fill in: shrunken log2 fold change of `RRIRRRPPRLPRPRPRPAIYPRP` is ___
-0.148

----------
# Tested on: Escherichia coli TOP10;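 further: peptides expressed intracellularly from a pBAD plasmid library in pooled LB shake-flask culture, induced with 0.3% L-arabinose, DNA abundance read by NGS, three biological replicates, DESeq2 with apeglm shrinkage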
# Procedure details: shrunken log2 fold change of peptide-encoding DNA abundance (4.5 h post-induction vs induction); higher = less antimicrobial activity (less host growth inhibition)
# Experimental conditions: time post-induction: 4.5 h; library: site-saturation at positions 5, 18, 19, 20
Use -0.1 as the dividing line for shrunken log2 fold change, with the line itself on the y side and lower values as n.

Worked examples, 3 sequences total:
RRIRGRPPRLPRPRPRPHEKPRP = y
RRIRWRPPRLPRPRPRPDMRPRP = y
RRIRVRPPRLPRPRPRPIKQPRP = y

Does the sequence `RRIRCRPPRLPRPRPRPSDHPRP` have recorded shrunken log2 fold change that is -0.1 or more?
n

Does the sequence `RRIRIRPPRLPRPRPRPLIMPRP` have recorded shrunken log2 fold change that is -0.1 or more?
n

Does the sequence `RRIRVRPPRLPRPRPRPQLCPRP` have recorded shrunken log2 fold change that is -0.1 or more?
n

Does the sequence `RRIRFRPPRLPRPRPRPPVYPRP` have recorded shrunken log2 fold change that is -0.1 or more?
n

Does the sequence `RRIRLRPPRLPRPRPRPVGVPRP` have recorded shrunken log2 fold change that is -0.1 or more?
y

Does the sequence `RRIRQRPPRLPRPRPRPCLWPRP` have recorded shrunken log2 fold change that is -0.1 or more?
n
